# Target: Coagulation factor X (Homo sapiens, UniProt P00742)
# Sequence (P00742 41-179 limits assumed): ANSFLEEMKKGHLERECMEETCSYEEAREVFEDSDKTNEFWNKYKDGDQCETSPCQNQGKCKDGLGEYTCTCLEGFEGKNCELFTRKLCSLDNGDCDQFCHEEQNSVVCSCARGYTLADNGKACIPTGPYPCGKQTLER
# Sequence (P00742 235-488 limits assumed): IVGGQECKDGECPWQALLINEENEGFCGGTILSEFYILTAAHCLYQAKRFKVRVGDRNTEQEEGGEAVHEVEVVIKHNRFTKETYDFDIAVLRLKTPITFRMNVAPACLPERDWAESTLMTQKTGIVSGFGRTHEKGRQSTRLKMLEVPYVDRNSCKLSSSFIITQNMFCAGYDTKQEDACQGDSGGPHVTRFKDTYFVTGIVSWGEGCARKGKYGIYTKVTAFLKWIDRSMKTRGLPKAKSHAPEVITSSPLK
Threshold-based label: IC50 under 10 µM gives 1, IC50 not under 10 µM gives -1.

Given CCOC(=O)[C@]1(C)CCC[C@@]2(C)[C@@H]3CC[C@@]4(C)C[C@]3(CC[C@@H]21)C/C4=N\NC(=S)Nc1ccc(C)cc1 , is recorded IC50 strictly lower than 10 µM?
-1

Given CCOC(=O)[C@]1(C)CCC[C@@]2(C)[C@@H]3CC[C@@]4(C)C[C@]3(CC[C@@H]21)C[C@H]4OCc1cn(-c2ccc(Br)cc2)nn1 , is recorded IC50 strictly lower than 10 µM?
1

Given CCOC(=O)[C@]1(C)CCC[C@@]2(C)[C@@H]3CC[C@@]4(C)C[C@]3(CC[C@@H]21)C[C@H]4OCc1cn(-c2ccccc2)nn1 , is recorded IC50 strictly lower than 10 µM?
-1

Given C[C@@]12CC[C@@H]3[C@@](CC[C@H]4[C@@]3(C)CCC[C@@]4(C)C(=O)O)(CC1=O)C2 , is recorded IC50 strictly lower than 10 µM?
1

###

# Target: Coagulation factor X (Homo sapiens)
Value Kind: IC50 (µM)
Only the number, expressed in µM, is required.

For orientation, consider the following solved cases.
Entry Smiles | Target | Unit Abbrev | Endpoint Result
CCOC(=O)[C@]1(C)CCC[C@@]2(C)[C@@H]3CC[C@@]4(C)C[C@]3(CC[C@@H]21)CC4=O | Coagulation factor X (Homo sapiens) | µM | 0.786
CCOC(=O)[C@]1(C)CCC[C@@]2(C)[C@@H]3CC[C@@]4(C)C[C@]3(CC[C@@H]21)C[C@H]4OCc1cn(-c2cccc(C)c2)nn1 | Coagulation factor X (Homo sapiens) | µM | 41.7
CCOC(=O)[C@]1(C)CCC[C@@]2(C)[C@@H]3CC[C@@]4(C)C[C@]3(CC[C@@H]21)C/C4=N\NC(=S)Nc1ccccc1 | Coagulation factor X (Homo sapiens) | µM | 13.4
CCOC(=O)[C@]1(C)CCC[C@@]2(C)[C@@H]3CC[C@@]4(C)C[C@]3(CC[C@@H]21)C[C@H]4OCc1cn(-c2ccc(F)cc2)nn1 | Coagulation factor X (Homo sapiens) | µM | 8.74
CCOC(=O)[C@]1(C)CCC[C@@]2(C)[C@@H]3CC[C@@]4(C)C[C@]3(CC[C@@H]21)C[C@H]4OCc1cn(-c2ccc3c(c2)OCO3)nn1 | Coagulation factor X (Homo sapiens) | µM | 7.57

Kindly state the measured IC50 obtained for CCOC(=O)[C@]1(C)CCC[C@@]2(C)[C@@H]3CC[C@@]4(C)C[C@]3(CC[C@@H]21)C/C4=N\NC(=S)Nc1ccccc1C with Coagulation factor X (Homo sapiens).
4.15

Kindly state the measured IC50 obtained for CCOC(=O)[C@]1(C)CCC[C@@]2(C)[C@@H]3CC[C@@]4(C)C[C@]3(CC[C@@H]21)C[C@H]4OCc1cn(-c2cccc(Cl)c2)nn1 with Coagulation factor X (Homo sapiens).
17.7

Kindly state the measured IC50 obtained for CCOC(=O)[C@]1(C)CCC[C@@]2(C)[C@@H]3CC[C@@]4(C)C[C@]3(CC[C@@H]21)C/C4=N\NC(=S)Nc1cccc(C)c1 with Coagulation factor X (Homo sapiens).
3.76

Kindly state the measured IC50 obtained for CCOC(=O)[C@]1(C)CCC[C@@]2(C)[C@@H]3CC[C@@]4(C)C[C@]3(CC[C@@H]21)C[C@H]4OCc1cn(-c2ccc(C(C)C)cc2)nn1 with Coagulation factor X (Homo sapiens).
20.3

Kindly state the measured IC50 obtained for CCOC(=O)[C@]1(C)CCC[C@@]2(C)[C@@H]3CC[C@@]4(C)C[C@]3(CC[C@@H]21)C[C@H]4OCc1cn(-c2ccc(C)cc2)nn1 with Coagulation factor X (Homo sapiens).
5.53

Kindly state the measured IC50 obtained for CCOC(=O)[C@]1(C)CCC[C@@]2(C)[C@@H]3CC[C@@]4(C)C[C@]3(CC[C@@H]21)C/C4=N\NC(=S)Nc1cccc(N(C)C)c1 with Coagulation factor X (Homo sapiens).
29.6

Kindly state the measured IC50 obtained for CCOC(=O)[C@]1(C)CCC[C@@]2(C)[C@@H]3CC[C@@]4(C)C[C@]3(CC[C@@H]21)C[C@H]4OCc1cn(-c2ccc(OC)cc2)nn1 with Coagulation factor X (Homo sapiens).
19.3

Kindly state the measured IC50 obtained for CCOC(=O)[C@]1(C)CCC[C@@]2(C)[C@@H]3CC[C@@]4(C)C[C@]3(CC[C@@H]21)C/C4=N\NC(=S)Nc1ccc(Br)cc1 with Coagulation factor X (Homo sapiens).
8.77

Kindly state the measured IC50 obtained for CCOC(=O)[C@]1(C)CCC[C@@]2(C)[C@@H]3CC[C@@]4(C)C[C@]3(CC[C@@H]21)C/C4=N\NC(=S)Nc1ccc(C(C)C)cc1 with Coagulation factor X (Homo sapiens).
54.9

The measurements presented in this section are drawn from ChEMBL document CHEMBL4602655.
